biological target: panel of more than 300 wild-type and mutant kinases (313 kinase panel) (Homo sapiens, UniProt Q13555); test: Kinase profiling in a biochemical assay panel (mobility shift assays and ELISA), %-inhibition at 1 μM; selectivity entropy; details: kinase CaMK2γ; 1 μM compound
Known %-inhibition, CaMK2γ of a selection of molecules
MEASUREMENT TYPE: %-inhibition, CaMK2γ (%)

> print(dat)
                         structure.notation    val
1  N#CC[C@H](C1CCCC1)n1cc(-c2ncnc3[nH]ccc23)cn1     56
2  C[C@@H](Oc1cc(-c2cnn(C3CCNCC3)c2)cnc1N)c1c(Cl)ccc(F)c1Cl    -10
3  Cc1cn(-c2cc(NC(=O)c3ccc(C)c(Nc4nccc(-c5cccnc5)n4)c3)cc(C(F)(F)F)c2)cn1  -2.76
4  CC(=O)Nc1cccc(-n2c(=O)n(C3CC3)c(=O)c3c(Nc4ccc(I)cc4F)n(C)c(=O)c(C)c32)c1      7
